settings: 288.15 K; Liquid; Ebulliometric method (Recirculating still)
Numbers after ± are expanded uncertainties.
# key: entry, value: vapor or sublimation pressure

compound: CCC(C)Cl (centres undefined)
vapor or sublimation pressure: 13.36 ± 0.099 kPa

Just so you know, measured vapor or sublimation pressure for CCCCCC came out at 12.89 ± 0.097 kPa

Just so you know, measured vapor or sublimation pressure for CC(C)(C)Cl came out at 26.42 ± 0.16 kPa

Just so you know, measured vapor or sublimation pressure for CC(C)CCl came out at 13 ± 0.097 kPa
